Listing: melting point of selected molecules

{"columns": ["molecule", "melting point"],
 "data": [
  ["Cc1nccn1-c1ccc([N+](=O)[O-])cc1F", "106 to 107 °C"],
  ["CC(C)(C)OC(=O)N[C@@H](CC1CCCCC1)[C@@H]1C[C@@H](C(C)(C)O)C(=O)O1", "123 to 125 °C"],
  ["CCC12CCC3=C(CCc4cc(OC(C)=O)ccc43)C1CCC2=O (stereo not given)", "132 to 134 °C"]
]}

Prompt line: Value lookup for melting point; key = C=C(C)c1c(OCC)cc(Cc2cnc(N)nc2N)cc1OCC
Response line: 196 to 198 °C

Prompt line: Repeat with O=C(O)Cc1ccc(NC(=O)C(COc2ccccc2)NS(=O)(=O)c2ccc(Br)cc2)cc1 (racemic)
Response line: 201 to 204 °C

Prompt line: Continue with Nc1cc(=O)n(Cc2cc(Cl)ccc2F)[nH]1
Response line: 160 °C

Prompt line: Same again, this time with NCC1CCc2[nH]c3ccc(F)c(Cl)c3c2C1 (stereo not given)
Response line: 179 to 180 °C

Prompt line: Consider next the molecule O=C(O)c1cccc2c(Cl)c3ccccc3cc12 in the same way.
Response line: 275 to 277 °C

Prompt line: Now try O=C1Cc2ccccc2C1(Cc1ccncc1)Cc1ccncc1 .
Response line: 95 to 96 °C

Prompt line: // query: O=C(O)c1ccc(Cl)cc1Oc1cccc(C(F)(F)F)c1
Response line: 146 °C

---

Entries and their measured melting point follow.

{"columns": ["compound", "measured-endpoint", "obs-value"],
 "data": [
  ["CC1(C)[C@@H](C=C(c2ccccc2)c2ccccc2)[C@@H]1C(=O)O (relative stereo)", "melting point", "115 °C"],
  ["Nc1ccc2ncnc(Nc3cc(Cl)c(Cl)cc3F)c2c1", "melting point", "265 °C"],
  ["O=C1NC(=O)c2ccc(Br)cc2/C1=C/NCc1cccnc1", "melting point", "299 to 300 °C"],
  ["O=C(O)c1cccc(-c2ccc3ncn(Cc4ccc(Cl)cc4Cl)c3n2)c1", "melting point", "258 to 260 °C"],
  ["COc1ccc(C(=O)Cc2ccnc(NC(=O)c3ccccc3)c2)cc1", "melting point", "136 to 139 °C"]
]}

Attention now turns to another entry.
Prompt line: Need melting point of CC1CC2=CC(=O)CCC2=C2CCC3(C)C(=O)CCC3C21 (stereo not given) , thanks.
Response line: 204 to 205 °C

---

measured-endpoint: melting point

{"columns": ["molecule", "melting point"],
 "data": [
  ["C[C@H]1N[C@H](c2ccc(Br)cc2)[C@@H]2C(=O)N(Cc3ccccc3)C(=O)[C@@H]21 (racemic)", "170 to 172 °C"],
  ["CC(Cn1nccn1)n1nnc2cc3c(=O)n(C(C)Cn4nccn4)nnc3cc2c1=O (stereo not given)", "194 to 195 °C"],
  ["CC(C)CC(NC(=O)Cc1ccc(NC(=O)Nc2ccccc2Cl)cc1)c1ncc(CCC(=O)O)s1 (stereo not given)", "173 to 175 °C"],
  ["Cc1cnc2c(NC(=O)c3c(Cl)cccc3Cl)ccc(C)c2c1-n1ccnc1", "214 to 216 °C"]
]}

Proceeding to the next molecule to report its melting point.
Prompt line: Need melting point, item N#CCc1cc(Cl)ncc1[N+](=O)[O-]
Response line: 87 to 89 °C

---

Below, each entry is listed alongside its reported melting point.

{"columns": ["molecule", "obs-value"],
 "data": [
  ["FC(F)(F)c1ccc(-c2cc3[nH]ccn3n2)cc1", "134 to 135 °C"],
  ["Nc1cc2c3c(cccc3c1Cl)C(=O)N(O)C2=O", "271 to 275 °C"]
]}

Prompt line: Give the measured melting point of CCOC(=O)/C=C/c1ccccc1C#N .
Response line: 60 to 62 °C

Prompt line: Also, CCCCN1CC=C(c2cccc3c2CC(=O)N3)CC1 please.
Response line: 110 to 111 °C

Prompt line: Another molecule to look at: COc1cc(N)c(Cl)cc1C(=O)NCC1CCN(CCCCCNC(=O)c2nn(C)c3ccccc23)CC1
Response line: 74 to 77 °C

Prompt line: Now the same for COc1ccc2c(c1OCCc1ccccc1)CC(C(=O)O)NC2 (racemic)
Response line: 232 to 235 °C

---

Measured melting point of individual entries

A selection of reference data follows.
{"columns": ["compound", "melting point"],
 "data": [
  ["O=C(c1cccc(O)c1)c1sc2cc(O)ccc2c1-c1ccccc1", "202 °C"],
  ["O=C(Cc1c(-c2ccccc2)c2cc3c(cc2oc1=O)C=CC3)Nc1ccc(F)cc1C(F)(F)F", "217 to 218 °C"],
  ["COC1C(=O)N=C(NC(=O)Nc2cccc(Cl)c2)N1C (centres undefined)", "147 to 149 °C"],
  ["Cc1ccc(CN2CCN(C3=NC4(C=CC(=O)C=C4)C(c4ccccc4)=C3)CC2)cc1", "135 °C"]
]}

Prompt line: Which melting point reading was recorded for the compound CC(C)C1OP(N(CCCCCCN(C2CC(C)(C)NC(C)(C)C2)P2OCC(C)(C)C(C(C)C)O2)C2CC(C)(C)NC(C)(C)C2)OCC1(C)C (centres undefined) ?
Response line: 95 to 97 °C

Prompt line: Try this compound too: O=C1c2ccccc2C(=O)N1CC(Br)(CBr)c1ccccc1 (centres undefined)
Response line: 162 to 163 °C

Prompt line: // next record CCCCCCOc1cc2c(cc1/C(C)=C/C=C/C(C)=C/C(=O)O)C(C)(C)CCCS2(=O)=O
Response line: 164 to 165 °C

Prompt line: Another compound: CN(C)c1cccc2c1C(=O)N(C1(C(N)=O)CCCCC1)C2=O
Response line: 166 to 169 °C

Prompt line: Cool, now CN1CCC(c2c(O)cc(O)c3c(=O)cc(-c4ccccc4Cl)oc23)C1CO (centres undefined)
Response line: 228 to 230 °C

---

measured-endpoint: melting point

Worked cases, answers included:
{"columns": ["compound", "melting point"],
 "data": [
  ["COc1cccc(CNC(=O)c2cc3c(=O)n(CC#N)c(=O)n(C)c3s2)c1", "159 to 163 °C"],
  ["O=C1c2ccccc2C(=O)N1CC(O)c1cnc(-c2ccccc2)nc1-c1ccccc1 (centres undefined)", "149 to 159 °C"],
  ["CCCCc1nc(C(C)O)c(C#N)n1Cc1ccc(-c2ccccc2C(=O)O)cc1 (centres undefined)", "200 to 201 °C"],
  ["CCOC(=O)CN(c1cccc2cc(-c3nccs3)[nH]c12)S(=O)(=O)c1cccs1", "135 to 137 °C"],
  ["CCOC(=O)CCCOc1ccc2c(c1)C(N(CC)S(C)(=O)=O)CC(C)(C)O2 (centres undefined)", "40 to 42 °C"]
]}

Prompt line: Quick one: melting point for COc1ccc(C2=NN(Cc3ccc(C(=O)O)cc3)C(=O)[C@H]3CCCC[C@@H]23)cc1OC (relative stereo) ?
Response line: 135 to 139 °C

Prompt line: Can you handle CCc1nn2ccc3c(c2c1CC#N)CCO3 next?
Response line: 179 to 180 °C

Prompt line: Item: CCc1nc2cc(S(C)(=O)=O)c(Cl)cc2n1-c1ccc(CCNC(=O)NS(=O)(=O)c2ccc(C)cc2)cc1
Response line: 105 to 118 °C

Prompt line: Now consider CC(C)(C)NC(=O)C1CCC2C3CNC4=CC(=O)CCC4(C)C3CCC12C (centres undefined) and answer again.
Response line: 186 to 189 °C

---

measured-endpoint: melting point

Previously resolved entries follow.
{"columns": ["molecule", "melting point"],
 "data": [
  ["CC1CCCN(c2cccc3c2C(=N)NC3N)C1 (stereo not given)", "104 °C"],
  ["COCOc1cc(Br)ccc1-c1cc(-c2cccc([N+](=O)[O-])c2)c(C#N)c(NC(=O)c2cccs2)n1", "166 to 167 °C"],
  ["CN(CC[C@H]1CC[C@H](C(=O)O)CC1)C(=O)OC(C)(C)C", "212 to 214 °C"],
  ["Cc1ccc(C(=O)OC2CCN(Cc3ccccc3)CC2)cc1", "73 to 74 °C"],
  ["CN(C)c1nc(N(C)Cc2ccc(O)cc2)nc(N(C)Cc2ccccc2O)n1", "80 to 81 °C"],
  ["N#CC(C#N)=C1CC(=C(C#N)C#N)c2ccccc21", "224 to 228 °C"],
  ["CCN(CCO[N+](=O)[O-])C(=O)COC(=O)[C@@H](C)c1ccc2cc(OC)ccc2c1", "60 to 61 °C"],
  ["CC(C)C[C@@H](CO)NC(=O)[C@H](Cc1c[nH]cn1)N(C(=O)[C@H](Cc1cccc2ccccc12)NC(=O)OCc1ccccc1)C(=O)[C@@H](N)Cc1cccc2ccccc12", "199 to 200 °C"]
]}

Prompt line: Request the reported melting point associated with CC(C)/C=C1\NC(=O)CC1=O
Response line: 134 to 136 °C
